Catalogue of inhibition readings, one per entry.
Experiment: 384-well plate pilot, post-Golgi transport modulator project, inhibition of yeast transport mutant growth (AID 636)
Settings: absorbance 615 nm, about 18 h, stronger effect = higher value
Activity calls are given as the source filed them. No stated cut-off is given here; in the data, active means inhibition above about 31%; inactive means the rest.

>>> df
                                   molecule     observed_value
0     CCN1CCN(c2c(Cl)cccc2NC(=O)c2ccco2)CC1  -3.33% (inactive)
1  CC(=O)c1cccc(NC(=O)c2ccc(NS(C)(=O)=O)cc2)c1  -3.95% (inactive)
2  O=C(c1ccc(COc2c(F)c(F)c(F)c(F)c2F)o1)N1CCOCC1  -5.81% (inactive)
3       Cc1nn(-c2ccc(F)cc2)c2sc(C(=O)O)cc12      0% (inactive)
4  CCOc1cc(C2C(C#N)=C(N)OC(C)=C2C(C)=O)cc(Br)c1O (stereo unspecified)  -5.95% (inactive)

// next entry
Enquiry: Suppose we examine the molecule `Cn1c(SCC(=O)Nc2ccc3c(c2)OCO3)nnc1-c1cnccn1` ; what inhibition value has been reported?
Return: -6.05% (inactive)

====

Catalogue of inhibition readings, one per entry.
Assay: 384-well plate pilot, post-Golgi transport modulator project, inhibition of yeast transport mutant growth (AID 636)
Settings: absorbance 615 nm, about 18 h, stronger effect = higher value
Just the number please, in %, no unit attached.

Enquiry: Suppose we examine the compound `Cn1c(-c2ccccc2)c(CCO)c2ccccc21` ; what inhibition value has been reported?
Return: -0.79

====

Test: reversal of MRP1-mediated doxorubicin resistance, pilot screen, H69AR cells, doxorubicin co-treatment (AID 601)
Settings: H69AR cells + 2 uM doxorubicin, CellTiter-Glo, 72 h; measured here: viability with 2 uM doxorubicin; at 10 µM; stronger effect = lower value
PARAMETER: viability (%)
Just the number please, in %, no unit attached.

In [3]: df
Out[3]:
                                   compound  u  observed_value
0              COc1ccc(CC(=O)N2CCOCC2)cc1OC  %            94.2
1  CCCC(=O)N(Cc1cc2ccccc2[nH]c1=O)c1ccccc1OC  %            99.5
2     CN=C1CC(C)(C)CC(=O)/C1=C(/O)CCC(=O)NC  %            92.1

Enquiry: Suppose we examine the compound CC(=O)Nc1ccc(S(=O)(=O)NCC2CCC(C(=O)NCCCN3CCCC3=O)CC2)cc1 (configuration not stated) ; what viability value has been reported?
Return: 87.8

Enquiry: # repeat for `Cc1cc(C)n(-c2ccc(C(=O)Oc3ccc4c(c3)OCO4)cc2)n1`
Return: 88

Enquiry: # repeat for `c1ccc(CCn2nnnc2CN2CCN(C3CCCC3)CC2)cc1`
Return: 87.5

Enquiry: # repeat for `COCCN(CC(=O)NCc1ccccc1)C(=O)CCC(=O)Nc1ccccn1`
Return: 91.5

Enquiry: # repeat for C#CCN1C(=O)C(O)(CC(=O)c2cccc(OC)c2)c2ccccc21 (configuration not stated)
Return: 38.3

Enquiry: # repeat for CCOc1ccc(S(=O)(=O)NCC2CCCO2)c2cccnc12 (configuration not stated)
Return: 87.1

Enquiry: # repeat for O=C1OCc2cc(NC(=O)C3CCCO3)ccc21 (configuration not stated)
Return: 105

Enquiry: # repeat for `COc1ccc(NC(=O)c2cc(C)on2)cc1OC`
Return: 88.6

Enquiry: # repeat for `Fc1cc(F)c(F)c(SCCc2ccncc2)c1F`
Return: 80.3

The origin of these recorded values is PubChem BioAssay.
